Test system: K4 kissing-loop RNA reporter;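 further: bound reporter read as fluorescence of individual clusters on recovered sequencing chips by microscopy, with normalized cluster intensities fitted with a binding model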
Experiment: apparent KD of K4 kissing-loop reporter; higher = weaker reporter binding
Conditions: Eterna round: R107; input ligand: tryptophan 2.4 mM
Returns one of condition met or condition not met; condition met when apparent KD of K4 kissing-loop reporter is >= 200 nM.

Some solved cases for reference:
Prompt: Could you tell me if the measured apparent KD of K4 kissing-loop reporter of UCCAGCAGUACUGAUACCAGACUGCAUGUAGUGAUGUUGCAUAAGGGCAUAGAUGUCUCAGUCCCUUGGCAGCGGUACUGUUGCA [#09 K4 Theophylline B Same State] reaches 200 nM or more?
Response: condition met

Prompt: Could you tell me if the measured apparent KD of K4 kissing-loop reporter of CUGCAACAUAACUUCUUCGUCCUAGAAGACUAGGAUAUCAGGAAACUGAGAAGGAGUCUCUGCAGUGAUGUUGCAGUUAGGACGA [KL-SSFMN-A7] reaches 200 nM or more?
Response: condition not met

Prompt: Could you tell me if the measured apparent KD of K4 kissing-loop reporter of CGUGAGUGCCGACGGUCAUCGGUCCAUGCACGAGGACCGGUACGGCCGCCACUCGAGCGUGGCAGUGAUGUUGCCAGCGCACUAA [Oninvexece] reaches 200 nM or more?
Response: condition not met

Prompt: Could you tell me if the measured apparent KD of K4 kissing-loop reporter of UGAUAGGACAGAAGGAGCGGAAUGCUAGUCAAAGACUAGCAACGUUAAACAGGAGUGAUGUUCCAGGUAGGUCGCUGUCCUAUCU [ArgBX 22 #SwitchBubble #StaticStem] reaches 200 nM or more?
Response: condition not met

Next:
Prompt: Could you tell me if the measured apparent KD of K4 kissing-loop reporter of CCCAAGGGCCUACCGGUAUGAUGGACGGAUACCAGAGGCGAAAGCCUCCCUUGGCAGCCGGGUGUAGUGAUGUUACUCCGGUAGU reaches 200 nM or more?
Response: condition not met

Prompt: Could you tell me if the measured apparent KD of K4 kissing-loop reporter of UUUAUAAUGUCGGCCGCCACUGGAUUAAUAUUUGUAUAAUCUAGUUCAAAGUGAUGUUUUGAGUCCAGGACCGGGACAUUUGUUA [JR_ExcTryptoB_Sub003] reaches 200 nM or more?
Response: condition met

Prompt: Could you tell me if the measured apparent KD of K4 kissing-loop reporter of GUACACUCUCGAGUGAUGUUCGGUAAUAGAGAGGAUAUCGCUUUUGCGAGAAGGCUCUGAAUGAGGAAACUCGUUCUGUGUGUAC [FMN A 20] reaches 200 nM or more?
Response: condition met

Prompt: Could you tell me if the measured apparent KD of K4 kissing-loop reporter of UAACUGCAGUGAUGUUGCAGAUGUCCUGACUAGGAUAUCAGGAAACUGAGAAGGAGUCCCUUCUACACUGCAGAGAAGGAGGACA [[K1]-[K2]-[F1]'-[F1]-[F2]-[F2]'-[K]'-[F]''_Design1] reaches 200 nM or more?
Response: condition not met

Prompt: Could you tell me if the measured apparent KD of K4 kissing-loop reporter of AUAUAUAACUGAAGGAGCGAGGCCAAAUAUAUAUAGUGAUGUUAUAUAAAGGCACAUAGGCCUCAGGUAGGUCGCAGAAUAAUAU [AstrosExyArGB#1] reaches 200 nM or more?
Response: condition met
